target: IGF-1R (Homo sapiens); construct: GST; assay: Receptor tyrosine kinase inhibition, 33P-ATP FlashPlate assay (IGF-1R); conditions: recombinant GST fusion kinase, substrate Poly(Glu,Tyr)4:1, Ki from IC50, Km ATP 2.52 µM
property-name: pKi
Answer as the number alone; pKi is minus log10 of concentration in mol/L.

Some entries whose results are on file:
Cc1ccc(CNc2ccnc3[nH]c4ccc(Br)cc4c23)cc1 [Compound 5h] ... 6.16
Brc1cccc(CNc2ccnc3[nH]c4ccc(Br)cc4c23)c1 [Compound 5c] ... 5.53

Attention now shifts to the item below.
Task: Reported pKi, compound Nc1cccc(CNc2ccnc3[nH]c4ccc(Br)cc4c23)c1 [Compound 5d] : ____
Output: 6.27

----------
target: IGF-1R (Homo sapiens, UniProt P08069); construct: GST; made in house; host or cells: Sf9 insect cells (baculovirus); test: Receptor tyrosine kinase inhibition, 33P-ATP FlashPlate assay (IGF-1R); format: biochemical; settings: recombinant GST fusion kinase, substrate Poly(Glu,Tyr)4:1, Ki from IC50, Km ATP 2.52 µM
Sequence (P08069 31-1367): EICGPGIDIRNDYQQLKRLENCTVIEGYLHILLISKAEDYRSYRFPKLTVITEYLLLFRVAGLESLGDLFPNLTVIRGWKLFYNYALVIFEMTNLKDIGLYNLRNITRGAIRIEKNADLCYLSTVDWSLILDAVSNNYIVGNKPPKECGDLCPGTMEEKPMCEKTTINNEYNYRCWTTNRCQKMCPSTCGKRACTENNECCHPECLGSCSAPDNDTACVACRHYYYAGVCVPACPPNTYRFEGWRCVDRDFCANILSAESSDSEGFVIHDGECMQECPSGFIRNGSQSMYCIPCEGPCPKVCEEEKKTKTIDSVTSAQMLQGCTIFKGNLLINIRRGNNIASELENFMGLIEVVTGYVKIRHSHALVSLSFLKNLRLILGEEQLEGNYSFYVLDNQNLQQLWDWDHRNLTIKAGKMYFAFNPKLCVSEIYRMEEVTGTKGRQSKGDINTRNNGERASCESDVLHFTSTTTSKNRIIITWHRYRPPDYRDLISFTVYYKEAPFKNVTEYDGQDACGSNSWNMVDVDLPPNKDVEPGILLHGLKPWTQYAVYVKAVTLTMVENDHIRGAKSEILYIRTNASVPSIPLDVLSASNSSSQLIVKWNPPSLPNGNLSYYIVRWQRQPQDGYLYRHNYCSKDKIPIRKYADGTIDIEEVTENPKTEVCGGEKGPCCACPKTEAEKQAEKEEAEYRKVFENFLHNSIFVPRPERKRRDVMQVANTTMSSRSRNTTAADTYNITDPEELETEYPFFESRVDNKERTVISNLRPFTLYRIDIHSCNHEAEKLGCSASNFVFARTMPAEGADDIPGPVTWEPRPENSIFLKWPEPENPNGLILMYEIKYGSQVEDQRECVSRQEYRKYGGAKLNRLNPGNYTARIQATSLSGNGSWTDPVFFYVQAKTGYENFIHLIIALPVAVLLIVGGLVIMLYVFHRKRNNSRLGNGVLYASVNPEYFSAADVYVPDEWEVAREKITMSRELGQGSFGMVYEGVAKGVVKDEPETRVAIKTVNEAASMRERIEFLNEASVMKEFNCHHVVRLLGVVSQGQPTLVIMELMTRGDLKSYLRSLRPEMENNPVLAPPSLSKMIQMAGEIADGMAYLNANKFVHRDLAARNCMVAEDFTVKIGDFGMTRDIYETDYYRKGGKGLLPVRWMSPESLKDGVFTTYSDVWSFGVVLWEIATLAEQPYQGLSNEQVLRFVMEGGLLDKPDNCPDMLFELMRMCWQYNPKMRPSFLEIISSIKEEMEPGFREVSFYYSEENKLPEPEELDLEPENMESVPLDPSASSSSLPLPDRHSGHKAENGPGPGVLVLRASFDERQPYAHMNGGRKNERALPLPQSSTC
property-name: pKi
Answer as the number alone; pKi is minus log10 of concentration in mol/L.

Some entries whose results are on file:
COc1cccc(CNc2ccnc3[nH]c4ccc(Br)cc4c23)c1 ... 5.01
COc1ccc(CNc2ccnc3[nH]c4ccc(Br)cc4c23)cc1 ... 5.65
COc1ccc(CNc2ccnc3[nH]c4ccc(C#N)cc4c23)cc1 ... 6.57
Clc1ccc(CNc2ccnc3[nH]c4ccc(Br)cc4c23)cc1 ... 5.64
Clc1cccc(CNc2ccnc3[nH]c4ccc(Br)cc4c23)c1 ... 5.46

Task: Recall the recorded pKi for Cc1ccc(CNc2ccnc3[nH]c4ccc(C#N)cc4c23)cc1 with IGF-1R (Homo sapiens, UniProt P08069) and state it.
Output: 6.41

Task: Recall the recorded pKi for COc1cccc(CNc2ccnc3[nH]c4ccc(C(=O)O)cc4c23)c1 with IGF-1R (Homo sapiens, UniProt P08069) and state it.
Output: 5.63

Task: Recall the recorded pKi for COc1cccc(CNc2ccnc3[nH]c4ccc(C#N)cc4c23)c1 with IGF-1R (Homo sapiens, UniProt P08069) and state it.
Output: 6.54

Task: Recall the recorded pKi for Brc1ccc(CNc2ccnc3[nH]c4ccc(Br)cc4c23)cc1 with IGF-1R (Homo sapiens, UniProt P08069) and state it.
Output: 6.05

----------
target: EGFR (Homo sapiens, UniProt P00533); construct: GST; test: Receptor tyrosine kinase inhibition, 33P-ATP FlashPlate assay (EGFR); details: recombinant GST fusion kinase, substrate Poly(Glu,Tyr)4:1, Ki from IC50, Km ATP 1.3 µM
Sequence (P00533 25-1210): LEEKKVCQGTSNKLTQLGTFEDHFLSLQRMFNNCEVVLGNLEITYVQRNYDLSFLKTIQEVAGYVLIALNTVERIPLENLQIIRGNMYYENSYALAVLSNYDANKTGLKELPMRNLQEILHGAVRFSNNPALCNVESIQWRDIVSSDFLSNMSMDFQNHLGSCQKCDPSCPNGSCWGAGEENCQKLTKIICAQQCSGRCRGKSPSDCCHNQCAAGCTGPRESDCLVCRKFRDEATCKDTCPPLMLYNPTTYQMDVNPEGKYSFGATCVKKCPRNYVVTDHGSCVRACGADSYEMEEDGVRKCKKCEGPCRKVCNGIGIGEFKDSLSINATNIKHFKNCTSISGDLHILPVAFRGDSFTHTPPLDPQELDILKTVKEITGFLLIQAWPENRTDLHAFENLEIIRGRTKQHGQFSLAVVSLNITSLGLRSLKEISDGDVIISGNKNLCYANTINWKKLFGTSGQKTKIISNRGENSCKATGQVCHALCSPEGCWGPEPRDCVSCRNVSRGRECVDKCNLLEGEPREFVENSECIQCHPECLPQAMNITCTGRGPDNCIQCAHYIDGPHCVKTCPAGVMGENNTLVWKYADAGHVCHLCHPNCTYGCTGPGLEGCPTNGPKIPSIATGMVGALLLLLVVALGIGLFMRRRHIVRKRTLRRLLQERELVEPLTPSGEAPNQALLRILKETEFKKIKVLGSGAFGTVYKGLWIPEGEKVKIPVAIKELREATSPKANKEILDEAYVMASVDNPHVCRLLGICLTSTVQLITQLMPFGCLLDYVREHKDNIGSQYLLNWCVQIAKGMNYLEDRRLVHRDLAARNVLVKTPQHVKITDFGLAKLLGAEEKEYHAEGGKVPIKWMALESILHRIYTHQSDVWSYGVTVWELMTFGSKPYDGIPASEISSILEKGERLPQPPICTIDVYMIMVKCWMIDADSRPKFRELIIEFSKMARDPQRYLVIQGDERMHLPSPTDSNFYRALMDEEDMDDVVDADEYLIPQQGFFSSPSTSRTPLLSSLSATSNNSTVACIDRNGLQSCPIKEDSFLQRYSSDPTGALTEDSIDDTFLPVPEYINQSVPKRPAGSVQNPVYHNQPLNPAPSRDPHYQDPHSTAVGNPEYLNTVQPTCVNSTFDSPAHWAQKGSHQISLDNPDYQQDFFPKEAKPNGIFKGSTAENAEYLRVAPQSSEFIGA
Consider the following compounds and their measured pKi readings.
Answer as the number alone; pKi is minus log10 of concentration in mol/L.

COc1ccc(CNc2ccnc3[nH]c4ccc(C#N)cc4c23)cc1 [Compound 6b] ... 6.80
Clc1cccc(CNc2ccnc3[nH]c4ccc(Br)cc4c23)c1 [Compound 5b] ... 6.44

Task: Reported pKi, compound COc1cccc(CNc2ccnc3[nH]c4ccc(Br)cc4c23)c1 [Compound 5a] : ____
Output: 6.46

Task: Reported pKi, compound Nc1cccc(CNc2ccnc3[nH]c4ccc(Br)cc4c23)c1 [Compound 5d] : ____
Output: 7.00

Task: Reported pKi, compound COc1cccc(CNc2ccnc3[nH]c4ccc(C(=O)O)cc4c23)c1 [Compound 7] : ____
Output: 6.85

----------
Consider the following molecules and their measured log10(Ki) readings.
target: EGFR (Homo sapiens); construct: GST; test: Receptor tyrosine kinase inhibition, 33P-ATP FlashPlate assay (EGFR); conditions: recombinant GST fusion kinase, substrate Poly(Glu,Tyr)4:1, Ki from IC50, Km ATP 1.3 µM
Plainly stated, the numbers are log10 of Ki given in nM.

Brc1cccc(CNc2ccnc3[nH]c4ccc(Br)cc4c23)c1 ... 2.41
Cc1ccc(CNc2ccnc3[nH]c4ccc(Br)cc4c23)cc1 ... 2.45
Brc1ccc(CNc2ccnc3[nH]c4ccc(Br)cc4c23)cc1 ... 2.65
COc1ccc(CNc2ccnc3[nH]c4ccc(Br)cc4c23)cc1 ... 3.07
Cc1ccc(CNc2ccnc3[nH]c4ccc(C#N)cc4c23)cc1 ... 2.20

Attention now shifts to the item below.
Task: Reported log10(Ki), molecule COc1cccc(CNc2ccnc3[nH]c4ccc(C#N)cc4c23)c1 : ____
Output: 1.86
